experiment: in vitro; design: Viability of infected HeLa host cells, resazurin conversion, bulk resorufin fluorescence relative to DMSO; conditions: human, hela cells; bulk resorufin, mean of 2
experimental-readout: viability at 28.5 h, 5 µM (%)
Express your answer in %, writing the number without its unit.

(Q) Tell us which viability at 28.5 h, 5 µM value is on record for O=C(NCCCn1ccnc1)N1CCN(Cc2ccc(Cl)cc2)CC1 [CBK305894]
(A) 93.5

(Q) Could you please provide reported viability at 28.5 h, 5 µM for O=C(CC1CCN(CCc2ccccc2)CC1)Nc1cccc(-n2cccn2)c1 [CBK285951] ? Thanks!
(A) 87.4

(Q) Supply measured viability at 28.5 h, 5 µM of COc1cc(OC)c(CCNC2CCCc3c2cnn3C)c(OC)c1 (centres unmarked) [CBK304482] in your reply.
(A) 91.3

(Q) Entry O=C(O)c1cn(C2CC2)c2cc(N3CCN(C(=O)Cc4ccsc4)CC3)c(F)cc2c1=O [CBK297142] needs its viability at 28.5 h, 5 µM filled in; supply it.
(A) 93

(Q) Return viability at 28.5 h, 5 µM for the following compound: O=C(Nc1ccc(F)cc1)c1[nH]c2ccccc2c1NS(=O)(=O)c1cc(Cl)sc1Cl [CBK050094]
(A) 96.8

----------
Answer each item with its documented viability at 28.5 h, 10 µM.
test: in vitro; conditions: human, hela cells, % viability
I only need the number, in %, no unit after it.

(Q) Read the entry CCNC(=O)N1CC2(CCN(Cc3csc(C)n3)CC2)c2ccccc21 [CBK126712] and write its reported viability at 28.5 h, 10 µM.
(A) 103

(Q) Answer with reported viability at 28.5 h, 10 µM of Nc1ncc(-c2ccc(C(=O)N3CCOCC3)cc2)nc1C(=O)NC1CCCC1 [CBK149155]
(A) 89.3

(Q) // Input: O=C(c1ccccc1F)N1CCN(C2CCN(Cc3ccccc3)CC2)CC1 [CBK263404] . Output its viability at 28.5 h, 10 µM only.
(A) 93.3

(Q) Give a short answer stating reported viability at 28.5 h, 10 µM for O=C(CSc1n[nH]c(=O)[nH]c1=O)N/N=C/c1cccs1 [CBK263508] .
(A) 98.9

(Q) Item O=C(O)c1cccc(N2C(=O)c3cccc4c(Cl)ccc(c34)C2=O)c1 [CBK299836] : provide viability at 28.5 h, 10 µM
(A) 90.3

----------
assay: in vitro; conditions: human, hela cells, % viability
experimental-readout: viability at 28.5 h, 10 µM (%)
Respond numerically; units are % and should not be typed.

(Q) Hello, please tell me recorded viability at 28.5 h, 10 µM for this one: `CC(C)(C)OC(=O)N1CCC(N(CCCO)Cc2ccccn2)CC1`
(A) 95.1

(Q) Consider the compound `CC(C)Nc1cncc(OCc2cccnc2)n1` . State its measured viability at 28.5 h, 10 µM.
(A) 102

(Q) Dear colleague, please send me the reported viability at 28.5 h, 10 µM for COc1ccc(CN2CC(C(=O)O)CC2=O)cc1 (stereo not drawn) when you can.
(A) 96.4

(Q) Let me know recorded viability at 28.5 h, 10 µM for COC(=O)[C@H]1CN(C(=O)C2CC(=O)N(C)C2)C[C@@H]1c1ccccc1F (stereo partly drawn) , thanks.
(A) 94.7

(Q) Please list viability at 28.5 h, 10 µM recorded for the compound `CCn1cncc1CN1CCN(CC2(c3ccc(C)cc3)CC2)CC1`
(A) 105

(Q) For the compound `CC1=NS(=O)(=O)NC2=C1CCCC2` , give its measured viability at 28.5 h, 10 µM value.
(A) 96.6

(Q) Tell me measured viability at 28.5 h, 10 µM for `O=C(O)CCCc1nc(-c2ccccn2)no1` please.
(A) 94.8

(Q) Provide only the value of recorded viability at 28.5 h, 10 µM for CC(=O)Nc1ccc(C(=O)N2CCCC(c3cccc(Cc4ccccc4Cl)n3)C2)cc1 (stereo not drawn)
(A) 109

(Q) Given the compound `Cc1noc(C)c1CC(=O)NCc1cccc(C#N)c1` , write its reported viability at 28.5 h, 10 µM.
(A) 106

(Q) Given the compound `Cc1ccnc2nc(C(=O)OCC(=O)Nc3cccc(C#N)c3)nn12` , write its reported viability at 28.5 h, 10 µM.
(A) 100

(Q) Recall and state the measured viability at 28.5 h, 10 µM for `O=C(NNc1nc(-c2ccccc2)cc(-c2ccccc2)n1)Nc1ccccc1` .
(A) 91.3

(Q) Give viability at 28.5 h, 10 µM for `Cc1ccc(S(=O)(=O)Nc2nc(C)c(C(=O)N3CCN(C)CC3)s2)cc1`
(A) 88.3

(Q) Read the entry O=C(NCC1CCOC1)c1ccc(-c2ccccc2CO)cc1 (stereo not drawn) and write its reported viability at 28.5 h, 10 µM.
(A) 107

(Q) Assign viability at 28.5 h, 10 µM to the following record: CC(C)C(=O)N1CC2(CCN(CCCCC3NC(=O)NC3=O)CC2)c2ccccc21 (stereo not drawn)
(A) 111

(Q) Tell me viability at 28.5 h, 10 µM reported for `CCOC(=O)Cn1c(C)nc2ccccc21`
(A) 103

(Q) Output viability at 28.5 h, 10 µM of Clc1ccc(CNCc2cccnc2)cc1 [CBK086257C]
(A) 108

(Q) Provide measured viability at 28.5 h, 10 µM value, entry: COc1ccc(C(=O)NC(Nc2ccccc2)C(Cl)(Cl)Cl)cc1OC (stereo not drawn)
(A) 106

(Q) For the compound `COC(=O)c1ccccc1NC(=O)c1cc2nc(-c3cccs3)cc(C(F)(F)F)n2n1` , give its reported viability at 28.5 h, 10 µM.
(A) 88

(Q) Tell me measured viability at 28.5 h, 10 µM for `O=S(=O)(c1c(Cl)cc(C(F)(F)F)cc1Cl)N1CCOCC1` please.
(A) 88.8

(Q) Quote viability at 28.5 h, 10 µM reported for O=C(C1CC2C=CC1C21CC1)N1CCC(Oc2cccnc2)CC1 (stereo not drawn) please.
(A) 101

(Q) Note down viability at 28.5 h, 10 µM recorded for `CN(Cc1ccccc1)C(=O)c1ccccc1NC(=O)c1ccccc1`
(A) 107

(Q) In one line, give reported viability at 28.5 h, 10 µM of the entry `COc1ccccc1OCC(=O)N1CCNC1=O` .
(A) 93.8

(Q) Please report the measured viability at 28.5 h, 10 µM for `CCN(CC)S(=O)(=O)c1ccc(C)c(C(=O)Oc2cccc(-c3cnc4ccccc4n3)c2)c1`
(A) 85.8

(Q) Give the value of viability at 28.5 h, 10 µM reported for the following: `COCCN1C(=O)c2ccc(C(=O)Nc3cc(C(=O)O)cc(C(=O)O)c3)cc2C1=O`
(A) 96.5

(Q) Supply recorded viability at 28.5 h, 10 µM for Cc1c(C#N)c2ccc(O)c(CN(C)C)c2n1-c1ccccc1 [CBK094247C] here.
(A) 98.2

(Q) State its viability at 28.5 h, 10 µM: COc1cc(OC)cc(C(=O)N2CCC3(CC2)CC(=O)c2ccc(OCCN(C)C)cc2O3)c1 [CBK169008T]
(A) 92.8

(Q) Please indicate viability at 28.5 h, 10 µM recorded for `O=c1[nH]c(=O)n([C@H]2C[C@@H](O)[C@@H](CO)O2)cc1CCO`
(A) 99.6

(Q) Note down viability at 28.5 h, 10 µM recorded for `CC1=NN(C(=O)c2ccc(Cl)cc2)C(C)(C)C1`
(A) 111

(Q) // fetch viability at 28.5 h, 10 µM given entry `CC(C)CN(CC(C)C)C(=O)Cn1cc([N+](=O)[O-])cc(C(N)=O)c1=O`
(A) 83.9

(Q) Report viability at 28.5 h, 10 µM for `Cc1ccc(OC(=O)c2cc(Cl)cnc2Cl)cc1`
(A) 84.5

(Q) Provide only the value of recorded viability at 28.5 h, 10 µM for O=C1Nc2ccccc2S(=O)(=O)N2CCCC12 (stereo not drawn)
(A) 112

(Q) # return recorded viability at 28.5 h, 10 µM for input `Cc1ccc(C(=O)NCCN2CCOCC2)c(N2CCOCC2)n1`
(A) 87

(Q) Return value of viability at 28.5 h, 10 µM for input `CC(C)CC(=O)N1CCC(Cc2ccccc2-c2cccs2)(C(=O)NC(C)C)CC1` , no commentary.
(A) 87.3

(Q) Please give measured viability at 28.5 h, 10 µM of the following entry: `O=C(O)CCSCC(=O)c1ccc(NS(=O)(=O)c2ccccc2)cc1`
(A) 97.5

(Q) Name the recorded viability at 28.5 h, 10 µM of the compound listed here: `COc1cc(/C=N/NC(=O)CSc2n[nH]c(=O)[nH]c2=O)ccc1O`
(A) 88.7

(Q) Indicate the recorded viability at 28.5 h, 10 µM value for this compound: CSCCC(C(=O)O)n1c(S)nnc1-c1ccc2ccccc2n1 (stereo not drawn)
(A) 99.5

(Q) Identify measured viability at 28.5 h, 10 µM associated with COc1cccc(C2C(C(=O)c3ccc(Cl)cc3)=C(O)C(=O)N2CCN2CCOCC2)c1 (stereo not drawn)
(A) 90

(Q) Identify measured viability at 28.5 h, 10 µM corresponding to `Cc1ccc(S(=O)(=O)CC(=O)N2CCN(C(=O)c3ccco3)CC2)cc1`
(A) 87.1

(Q) State its viability at 28.5 h, 10 µM: `CCOC(=O)COc1ccc(C#N)cc1OCC`
(A) 103
